Target: Voltage-dependent L-type calcium channel subunit alpha-1C (Rattus norvegicus)
Sequence (P22002 whole entry): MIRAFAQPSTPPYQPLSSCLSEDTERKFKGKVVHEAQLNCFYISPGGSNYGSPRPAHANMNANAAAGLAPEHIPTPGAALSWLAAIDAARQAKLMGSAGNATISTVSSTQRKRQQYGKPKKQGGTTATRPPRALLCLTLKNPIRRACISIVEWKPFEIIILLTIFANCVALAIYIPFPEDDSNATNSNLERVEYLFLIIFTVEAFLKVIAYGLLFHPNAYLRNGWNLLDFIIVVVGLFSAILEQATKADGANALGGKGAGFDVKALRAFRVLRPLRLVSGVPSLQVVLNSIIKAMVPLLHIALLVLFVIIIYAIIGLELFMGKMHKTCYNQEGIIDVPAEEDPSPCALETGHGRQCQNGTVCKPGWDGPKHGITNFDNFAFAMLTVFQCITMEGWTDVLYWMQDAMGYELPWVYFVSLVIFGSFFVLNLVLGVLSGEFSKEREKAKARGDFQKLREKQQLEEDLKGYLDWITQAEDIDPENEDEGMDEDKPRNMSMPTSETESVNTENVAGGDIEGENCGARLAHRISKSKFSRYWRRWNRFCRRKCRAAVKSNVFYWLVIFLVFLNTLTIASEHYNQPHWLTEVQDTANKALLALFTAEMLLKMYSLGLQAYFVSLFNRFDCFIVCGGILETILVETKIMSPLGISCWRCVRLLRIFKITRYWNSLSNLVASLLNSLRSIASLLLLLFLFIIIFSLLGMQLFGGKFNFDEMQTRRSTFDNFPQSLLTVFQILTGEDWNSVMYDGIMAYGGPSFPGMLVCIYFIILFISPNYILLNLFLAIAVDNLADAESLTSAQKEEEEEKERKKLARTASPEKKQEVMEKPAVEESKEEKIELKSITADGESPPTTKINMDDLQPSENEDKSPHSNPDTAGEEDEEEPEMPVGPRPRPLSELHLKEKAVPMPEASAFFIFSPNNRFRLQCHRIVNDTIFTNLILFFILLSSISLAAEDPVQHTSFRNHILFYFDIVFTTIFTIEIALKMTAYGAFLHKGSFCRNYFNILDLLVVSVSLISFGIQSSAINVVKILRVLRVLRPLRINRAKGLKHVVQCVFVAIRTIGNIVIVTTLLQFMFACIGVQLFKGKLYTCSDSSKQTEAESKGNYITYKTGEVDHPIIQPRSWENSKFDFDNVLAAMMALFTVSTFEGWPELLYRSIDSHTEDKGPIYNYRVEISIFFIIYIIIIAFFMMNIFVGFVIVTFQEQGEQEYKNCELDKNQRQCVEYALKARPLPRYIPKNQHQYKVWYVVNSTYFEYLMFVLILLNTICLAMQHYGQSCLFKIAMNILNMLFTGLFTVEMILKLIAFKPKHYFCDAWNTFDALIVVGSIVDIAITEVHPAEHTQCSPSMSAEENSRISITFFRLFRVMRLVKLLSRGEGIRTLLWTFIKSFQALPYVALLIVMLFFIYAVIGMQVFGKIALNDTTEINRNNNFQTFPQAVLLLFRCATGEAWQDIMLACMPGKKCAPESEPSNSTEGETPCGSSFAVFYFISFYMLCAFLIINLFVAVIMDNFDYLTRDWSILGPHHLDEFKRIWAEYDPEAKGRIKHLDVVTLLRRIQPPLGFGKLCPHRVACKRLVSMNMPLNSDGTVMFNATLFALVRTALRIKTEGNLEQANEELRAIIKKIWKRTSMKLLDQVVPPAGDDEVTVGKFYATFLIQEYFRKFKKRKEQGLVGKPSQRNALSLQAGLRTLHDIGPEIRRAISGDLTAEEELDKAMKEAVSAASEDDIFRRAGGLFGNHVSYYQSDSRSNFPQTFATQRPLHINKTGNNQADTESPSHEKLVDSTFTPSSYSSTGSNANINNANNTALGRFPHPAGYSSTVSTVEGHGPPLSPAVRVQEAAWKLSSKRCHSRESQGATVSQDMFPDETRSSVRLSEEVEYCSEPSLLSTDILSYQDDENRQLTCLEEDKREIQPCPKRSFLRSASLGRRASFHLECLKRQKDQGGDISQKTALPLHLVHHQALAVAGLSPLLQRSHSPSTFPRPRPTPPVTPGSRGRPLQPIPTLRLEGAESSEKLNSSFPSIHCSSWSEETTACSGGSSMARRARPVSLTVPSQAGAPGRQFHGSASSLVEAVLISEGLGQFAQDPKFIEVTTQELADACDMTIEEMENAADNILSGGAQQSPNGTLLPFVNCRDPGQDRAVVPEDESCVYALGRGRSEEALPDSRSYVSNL
Assay: In vitro inhibition of K+ induced contractions of the isolated rat aorta.
Observed property: pIC50
On this scale, pIC50 is minus log10 of a concentration expressed in M (mol/L).

Example results:
>  <Molecule>
COc1ccc(OCCN(C)CCCN2C(=O)CSC2c2cc(C(C)(C)C)c(O)c(C(C)(C)C)c2)cc1OC (stereo not given)

>  <pIC50>
6.74

$$$$
>  <Molecule>
CC(C)(C)c1cc(C2SCC(=O)N2CCCN2CCC(Cc3ccccc3)CC2)cc(C(C)(C)C)c1O (stereo not given)

>  <pIC50>
6.68

$$$$
>  <Molecule>
CN(CCCN1C(=O)CSC1c1cc(C(C)(C)C)c(O)c(C(C)(C)C)c1)Cc1ccccc1 (stereo not given)

>  <pIC50>
6.22

$$$$
>  <Molecule>
CC(C)(C)c1cc(C2SCC(=O)N2CCCN)cc(C(C)(C)C)c1O (stereo not given)

>  <pIC50>
5.36

$$$$

Kindly review the next molecule as well.
The measured pIC50 that COc1ccc(OCCN(C)CCCN2C(=O)CSC2c2cc(C(C)(C)C)c(O)c(C(C)(C)C)c2)cc1 (stereo not given) showed for Voltage-dependent L-type calcium channel subunit alpha-1C (Rattus norvegicus) is 6.64
